- measured.target: Tyrosine-protein kinase JAK2 (Homo sapiens, UniProt O60674)
- Sequence (O60674 whole entry): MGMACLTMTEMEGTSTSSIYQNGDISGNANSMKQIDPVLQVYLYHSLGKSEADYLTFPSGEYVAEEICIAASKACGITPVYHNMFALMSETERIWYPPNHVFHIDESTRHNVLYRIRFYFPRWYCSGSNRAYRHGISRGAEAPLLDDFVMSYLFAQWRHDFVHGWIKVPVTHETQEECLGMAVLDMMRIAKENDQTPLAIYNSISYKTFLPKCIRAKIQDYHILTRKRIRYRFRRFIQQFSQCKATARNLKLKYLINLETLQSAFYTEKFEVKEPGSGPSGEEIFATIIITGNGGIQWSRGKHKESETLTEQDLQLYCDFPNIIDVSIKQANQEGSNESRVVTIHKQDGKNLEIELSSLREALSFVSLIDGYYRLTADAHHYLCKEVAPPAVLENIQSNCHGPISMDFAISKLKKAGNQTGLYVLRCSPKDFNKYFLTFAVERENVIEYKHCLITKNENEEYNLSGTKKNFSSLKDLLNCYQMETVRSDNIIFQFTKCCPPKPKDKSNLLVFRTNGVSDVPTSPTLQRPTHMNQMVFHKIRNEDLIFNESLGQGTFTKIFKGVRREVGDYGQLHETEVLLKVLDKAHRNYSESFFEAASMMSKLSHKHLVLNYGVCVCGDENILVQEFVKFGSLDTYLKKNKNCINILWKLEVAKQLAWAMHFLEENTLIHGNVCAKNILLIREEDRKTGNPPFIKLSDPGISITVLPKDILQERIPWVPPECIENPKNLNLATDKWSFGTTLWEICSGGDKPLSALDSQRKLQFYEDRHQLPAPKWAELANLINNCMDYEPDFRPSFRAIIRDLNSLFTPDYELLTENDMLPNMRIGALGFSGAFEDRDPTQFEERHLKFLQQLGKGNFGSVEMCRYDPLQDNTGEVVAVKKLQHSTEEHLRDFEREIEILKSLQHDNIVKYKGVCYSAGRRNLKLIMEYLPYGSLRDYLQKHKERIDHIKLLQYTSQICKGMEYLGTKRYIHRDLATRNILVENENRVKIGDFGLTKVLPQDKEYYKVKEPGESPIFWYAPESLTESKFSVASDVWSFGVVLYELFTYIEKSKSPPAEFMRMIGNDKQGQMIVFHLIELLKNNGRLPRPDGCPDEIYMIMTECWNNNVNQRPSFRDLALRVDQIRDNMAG
test.readout: IC50 (nM)

> print(dat)
                         structure.notation  test.readout  result
1  Cc1cnc2nc1-c1cccc(c1)OCC/C=C/CN(C)Cc1cccc(c1)N2          IC50     180

* * *

- protocol.notes: Half life in human liver microsomes
- Assay type: ADME, Microsome
test.readout: half-life

> print(dat)
                         structure.notation  test.readout  result
1  COc1ccc(-c2nc(Nc3cccc(NC(=O)N4CCCC4)c3)nc3nc[nH]c23)cc1     half-life   > 1 h
